System: Yap3 (UniProt P38749)
Sequence: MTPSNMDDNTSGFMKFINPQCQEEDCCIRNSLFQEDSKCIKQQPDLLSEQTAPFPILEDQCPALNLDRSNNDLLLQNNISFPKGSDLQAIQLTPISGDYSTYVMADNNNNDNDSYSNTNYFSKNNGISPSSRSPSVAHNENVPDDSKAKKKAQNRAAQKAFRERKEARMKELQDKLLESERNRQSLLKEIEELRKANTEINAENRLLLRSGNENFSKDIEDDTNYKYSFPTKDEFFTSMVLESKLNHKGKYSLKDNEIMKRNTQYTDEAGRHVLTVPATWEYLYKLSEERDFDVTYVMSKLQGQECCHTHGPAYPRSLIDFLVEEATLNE
Test Method Notes: PBM E-score (8-mer binding enrichment) (E-score (-0.5 to 0.5)); higher = stronger / more preferred TF binding
Run Parameters: protein concentration: 100 nM; construct: GST-full length
In all, about 33,000 sequences were measured (“E-score (-0.5 to 0.5)”: median about -0.0034, highest 2% from about 0.25 on). Many of the other results were omitted from the sample, so the highest values are more common in it than they were.
Assay Readout: PBM E-score

>>> quantitative_result("GGCACTAA")
0.107
>>> quantitative_result("ACCCGGGT")
-0.12
>>> quantitative_result("GCCTGCCC")
-0.297
>>> quantitative_result("AATATCTA")
0.0725
>>> quantitative_result("TGAGTCAA")
0.0132
>>> quantitative_result("CAGAACAA")
0.248
>>> quantitative_result("ATTATCAC")
0.282
>>> quantitative_result("GGACATGA")
-0.0945
>>> quantitative_result("CCAGCAGA")
-0.17
>>> quantitative_result("AACGTAAA")
0.2
>>> quantitative_result("CGTGCACC")
-0.0988
>>> quantitative_result("CGAACTTA")
0.0175
>>> quantitative_result("AAACATAC")
0.0457
>>> quantitative_result("GAGGCATC")
-0.206
>>> quantitative_result("CGGCGATC")
-0.086
>>> quantitative_result("ATGATCGA")
0.0147
>>> quantitative_result("AATATCTC")
0.263
>>> quantitative_result("CTGATCGA")
-0.239
>>> quantitative_result("AAACATAG")
-0.0382
>>> quantitative_result("ATTATCAG")
0.0829
>>> quantitative_result("CAAGAACA")
-0.0451

###

System: Yap3 (UniProt P38749)
Sequence: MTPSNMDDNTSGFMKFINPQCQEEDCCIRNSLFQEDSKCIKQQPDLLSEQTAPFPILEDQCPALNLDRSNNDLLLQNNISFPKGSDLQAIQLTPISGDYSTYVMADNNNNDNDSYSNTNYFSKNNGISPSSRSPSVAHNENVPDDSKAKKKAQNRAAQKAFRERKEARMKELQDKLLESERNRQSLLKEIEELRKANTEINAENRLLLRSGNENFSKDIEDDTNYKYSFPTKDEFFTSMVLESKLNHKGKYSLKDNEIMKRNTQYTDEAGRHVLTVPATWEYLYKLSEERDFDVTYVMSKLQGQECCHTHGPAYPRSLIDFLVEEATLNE
Test Method Notes: PBM E-score (8-mer binding enrichment) (E-score (-0.5 to 0.5)); higher = stronger / more preferred TF binding
Run Parameters: protein concentration: 100 nM; construct: GST-full length
In all, about 33,000 sequences were measured (“E-score (-0.5 to 0.5)”: median about -0.0034, highest 2% from about 0.25 on). What follows is part of a selection rich in the highest values, with near analogues and random picks from the rest.
Grouping rule (PBM E-score): group A (below 0.08), group B (0.08 to below 0.2), group C (0.2 or more)

>>> label_value("AATTGTTG")
"group A"
>>> label_value("AATTATGG")
"group C"
>>> label_value("AATTATGA")
"group C"
>>> label_value("ACATAACT")
"group B"
>>> label_value("TGAAAGCA")
"group C"
>>> label_value("CGGCAGAA")
"group B"
>>> label_value("AGCCCACA")
"group A"
>>> label_value("AATGTGAA")
"group C"
>>> label_value("AAGGTCAT")
"group A"
>>> label_value("ACCCAAAC")
"group B"
>>> label_value("ATCAGGCA")
"group A"
>>> label_value("CTTACGTA")
"group C"
>>> label_value("GAAACGAC")
"group B"

###

System: Yap3 (UniProt P38749)
Sequence: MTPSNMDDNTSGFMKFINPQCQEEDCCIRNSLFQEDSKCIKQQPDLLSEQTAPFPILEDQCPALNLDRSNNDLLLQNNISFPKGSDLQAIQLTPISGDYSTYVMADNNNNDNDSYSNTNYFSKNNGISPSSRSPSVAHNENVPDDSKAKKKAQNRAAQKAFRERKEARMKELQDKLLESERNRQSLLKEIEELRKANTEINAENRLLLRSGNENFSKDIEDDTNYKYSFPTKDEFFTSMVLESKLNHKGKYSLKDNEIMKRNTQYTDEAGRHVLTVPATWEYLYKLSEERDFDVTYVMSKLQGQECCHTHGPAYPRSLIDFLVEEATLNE
Test Method Notes: PBM E-score (8-mer binding enrichment) (E-score (-0.5 to 0.5)); higher = stronger / more preferred TF binding
Run Parameters: protein concentration: 100 nM; construct: GST-full length
Whole data set: some 33,000 sequences, median “E-score (-0.5 to 0.5)” near -0.0034, cut for the highest 2% near 0.25. Many of the other results were omitted from the sample, so the highest values are more common in it than they were.
Assay Readout: PBM E-score

>>> quantitative_result("ATTGTTAA")
0.17
>>> quantitative_result("GAGAAGCA")
-0.118
>>> quantitative_result("ACGCAAGT")
-0.0875
>>> quantitative_result("GATAATAC")
0.182

###

System: Yap3 (UniProt P38749)
Sequence: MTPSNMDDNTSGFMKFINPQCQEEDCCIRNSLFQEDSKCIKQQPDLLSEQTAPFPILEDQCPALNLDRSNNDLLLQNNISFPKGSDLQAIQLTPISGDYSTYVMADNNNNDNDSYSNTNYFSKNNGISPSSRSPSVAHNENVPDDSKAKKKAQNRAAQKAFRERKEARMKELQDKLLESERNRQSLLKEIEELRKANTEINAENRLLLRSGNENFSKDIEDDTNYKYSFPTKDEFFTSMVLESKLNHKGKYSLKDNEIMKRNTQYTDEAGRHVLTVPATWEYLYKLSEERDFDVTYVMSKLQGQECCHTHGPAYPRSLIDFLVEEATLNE
Test Method Notes: PBM E-score (8-mer binding enrichment) (E-score (-0.5 to 0.5)); higher = stronger / more preferred TF binding
Run Parameters: protein concentration: 100 nM; construct: GST-full length
Over roughly 33,000 sequences, “E-score (-0.5 to 0.5)” has its median near -0.0034; the highest 2% begin near 0.25. The sample as a whole holds a higher share of the highest values than the screen did.
Think of 0.1 as a floor: if PBM E-score stands on it or above, it is yes; beneath it, no.

>>> label_value("CATGTTGA")
"yes"
>>> label_value("AATCGCTA")
"no"
>>> label_value("ATAGAGAT")
"yes"
>>> label_value("CTTATATC")
"yes"
>>> label_value("ACTTGGGC")
"no"
>>> label_value("GTTATGAA")
"yes"
>>> label_value("GTCATTAA")
"yes"
>>> label_value("CTCCTCCC")
"no"
>>> label_value("GGTACTGA")
"no"
>>> label_value("ACCATATC")
"no"
>>> label_value("TTACCTAA")
"yes"
>>> label_value("GCAGTGTA")
"no"
>>> label_value("CATCGCAC")
"no"
>>> label_value("AATTGGTA")
"yes"
>>> label_value("ACGATTAA")
"no"
>>> label_value("ATGGCAAT")
"no"
>>> label_value("ACGCGCAC")
"no"
>>> label_value("GGAATCGA")
"no"
>>> label_value("AGCAACTA")
"yes"
>>> label_value("TCTATAAA")
"yes"
>>> label_value("AATAACAT")
"yes"
>>> label_value("GTTCACAA")
"no"
>>> label_value("GTGTGTTA")
"yes"
>>> label_value("CGGTGTGA")
"yes"
>>> label_value("CACAGTAA")
"yes"
>>> label_value("ATGTGTTA")
"yes"
>>> label_value("CTTATTAA")
"yes"
>>> label_value("ATTATGAA")
"yes"
>>> label_value("CCAATTGA")
"no"
>>> label_value("ACCATATG")
"yes"
>>> label_value("AGGTCGAT")
"yes"
>>> label_value("GTTATTTA")
"yes"
>>> label_value("TACAGTAA")
"yes"
>>> label_value("CCCCGTCG")
"no"
>>> label_value("ATTAACAC")
"yes"
>>> label_value("CATAAGTC")
"yes"
>>> label_value("GCGATTAA")
"yes"
>>> label_value("CTCGAGAC")
"yes"
>>> label_value("GTTGCTAA")
"yes"
>>> label_value("CATAGCAC")
"no"
>>> label_value("CTTATGAA")
"no"
>>> label_value("AAAGAGGC")
"no"
>>> label_value("TCCTTCAA")
"no"
